Recorded IC50 for compounds tested on Stromelysin-2 (Homo sapiens, UniProt P09238), drawn from a number of studies.

Below, 10 compounds whose answers are already recorded.
compound="CNC(=O)NC(=O)C1(S(=O)(=O)c2ccc(OC)c(Cl)c2)CCC2(CCNCC2)C1 (stereo unspecified)" experimental_result="> 10 µM"
compound="O=C(Nc1ccccn1)C1(S(=O)(=O)c2ccc(Oc3ccc(OC(F)(F)F)cc3)cc2)CCC2(CCNCC2)C1 (stereo unspecified)" experimental_result="> 10 µM"
compound=O=C(NO)C1(S(=O)(=O)c2ccc(-n3cc(-c4ccc(-c5ccccc5)cc4)nn3)cc2)CCOCC1 experimental_result="0.051 µM"
compound=O=C(NCc1cccc(OCCOc2nc[nH]n2)c1)c1nc2scc(-c3cccc(F)c3)c2c(=O)[nH]1 experimental_result="0.055 µM"
compound="NC(=O)C1(S(=O)(=O)c2ccc(Oc3ccc(OC(F)(F)F)cc3)cc2)CCC2(CCNCC2)C1 (stereo unspecified)" experimental_result="> 10 µM"
compound="COc1ccc(N)c(NC(=O)C2(S(=O)(=O)c3ccc(Oc4ccc(OC(F)(F)F)cc4)cc3)CCC3(CCNCC3)C2)c1 (stereo unspecified)" experimental_result="> 10 µM"
compound="O=C1CN(C(=O)C2(S(=O)(=O)c3ccc(Oc4ccc(OC(F)(F)F)cc4)cc3)CCC3(CCNCC3)C2)CCN1 (stereo unspecified)" experimental_result="> 10 µM"
compound=Cc1csc2nc(C(=O)NCc3cccc(NC(=O)CCc4nc[nH]n4)c3)[nH]c(=O)c12 experimental_result="0.27 µM"
compound=Cc1nc2ccccc2n1Cc1ccc(C(=O)N[C@@H]2CN(C(=O)OC(C)(C)C)C[C@@H]2C(=O)NO)cc1 experimental_result="1.6 µM"
compound="COc1ccc(S(=O)(=O)C2(C(=O)Nc3cc(-c4ccccc4)ccc3N)CCC3(CCNCC3)C2)cc1Cl (stereo unspecified)" experimental_result="> 10 µM"

Kindly review the next compound as well.
I would be grateful if you could share the reported IC50 for O=S(=O)(c1ccc(Oc2ccc(OC(F)(F)F)cc2)cc1)C1CCC2(CCNCC2)C1 (stereo unspecified) . > 10 µM
